Reference source for all entries: ChEMBL document CHEMBL5058577

# Tested on: U2OS
# assayText: Multiplex assay against U2OS
# Type: toxicity, cell-based
# cond: human, 48 h, 10 µM, compound concentration 10 uM, replicate 1
Under this convention, Fulfilled denotes Population Mitochondria Different-Phenotype (%) strictly below 4% and Not fulfilled denotes Population Mitochondria Different-Phenotype (%) at or above 4%.

>>> group("C=CCN1C[C@H](C(=O)N(CCCN(C)C)C(=O)NCC)C[C@@H]2c3cccc4[nH]cc(c34)C[C@H]21 [CABERGOLINE]")
"Fulfilled"
>>> group("C[C@H](NC(=O)CNC(=O)c1cccc(Cl)c1)c1ccccc1")
"Fulfilled"
>>> group("CN(C)C/C=C/C(=O)Nc1ccc(C(=O)N2CCCC(Nc3ncc(Cl)c(-c4c[nH]c5ccccc45)n3)C2)cc1 (centres undefined)")
"Not fulfilled"
>>> group("Cc1ccc(OCC(O)C(C)NC(C)C)c2c1CCC2.Cl (centres undefined)")
"Not fulfilled"
>>> group("Nc1nc(CC(=O)Nc2ccc(CCNC[C@H](O)c3ccccc3)cc2)cs1 [MIRABEGRON]")
"Fulfilled"
>>> group("Cc1nn(C)c2nc(NNC(=O)Nc3cc(Cl)nc(Cl)c3)cc(C(C)C)c12")
"Not fulfilled"
>>> group("CN1CCN(c2ccc(Nc3c4ccccc4nc4ccccc34)cc2)CC1.Cl.Cl.O")
"Not fulfilled"
>>> group("C[C@@H]1CC(=O)Nc2cccc(-c3ccc4c(c3)c(-c3cnn(C)c3)nn4C)c2N1")
"Fulfilled"
